target_or_test_system: T1, Human EphA2 (Human, UniProt P29317 24-537)
T1 construct: extracellular domain; also called EphA2 (Ecto), Human
T1 sequence (P29317 24-537): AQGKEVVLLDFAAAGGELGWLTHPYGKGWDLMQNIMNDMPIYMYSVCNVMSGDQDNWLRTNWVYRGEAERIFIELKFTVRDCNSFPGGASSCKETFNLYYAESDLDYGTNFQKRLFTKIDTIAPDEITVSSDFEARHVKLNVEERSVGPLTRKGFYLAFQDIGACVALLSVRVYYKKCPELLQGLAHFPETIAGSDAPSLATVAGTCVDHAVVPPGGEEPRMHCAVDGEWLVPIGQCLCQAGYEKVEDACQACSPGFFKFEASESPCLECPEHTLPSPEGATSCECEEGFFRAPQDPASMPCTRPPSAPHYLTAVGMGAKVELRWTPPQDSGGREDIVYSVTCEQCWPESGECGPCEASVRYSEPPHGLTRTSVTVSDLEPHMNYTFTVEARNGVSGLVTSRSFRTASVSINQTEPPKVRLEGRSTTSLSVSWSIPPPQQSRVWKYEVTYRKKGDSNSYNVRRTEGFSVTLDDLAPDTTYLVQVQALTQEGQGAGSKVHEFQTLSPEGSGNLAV
test_summary: FP competition; competitor: fluorescent Compound 18
Numbered stars: 1 amine (or outer) side, 2 acyl side, 3 side chain; on linkers, the order of the positions; unused ones are H or OH. Bridge positions count the residues as written; N and C are the ends. Square brackets hold non-standard residues; d marks the D form. Ends that are not written are not given here. TBMB = c1c(C[*:1])cc(C[*:3])cc1C[*:2]; Sar = CNCC(=O)O
// returns NOT MET unless Ki is strictly below 100 nM, in which case MET

[
  {
    "binder": "ACPWGPFWCPVARPGC (N-terminal Sar2 before the entry; three Cys cyclised on TBMB, bicyclic peptide) [Compound 101]",
    "label_value": "NOT MET"
  },
  {
    "binder": "[Sar][Sar]ACPWGPFWCPVNRP[dA]C (linker 4-11-18 via TBMB, bicyclic peptide) [Compound 112]",
    "label_value": "MET"
  },
  {
    "binder": "[Sar][Sar]ACPWAPFWCPVNRPGC (linker 4-11-18 via TBMB, bicyclic peptide) [Compound 288]",
    "label_value": "NOT MET"
  },
  {
    "binder": "[Sar][Sar]ACPWGPFWCPVN[dA]PGC (linker 4-11-18 via TBMB, bicyclic peptide) [Compound 302]",
    "label_value": "NOT MET"
  },
  {
    "binder": "[Sar][Sar]ACPWGPFWCAVNRPGC (linker 4-11-18 via TBMB, bicyclic peptide) [Compound 291]",
    "label_value": "NOT MET"
  },
  {
    "binder": "ADVHCPWGPFWCPVN[dA]PGCA (linker 5-12-19 via TBMB, bicyclic peptide) [Compound 156]",
    "label_value": "MET"
  },
  {
    "binder": "[Sar][Sar]ACPWGPAWCPVNRPGC (linker 4-11-18 via TBMB, bicyclic peptide) [Compound 83]",
    "label_value": "NOT MET"
  },
  {
    "binder": "[Sar][Sar]ACPWGAFWCPVNRPGC (linker 4-11-18 via TBMB, bicyclic peptide) [Compound 289]",
    "label_value": "NOT MET"
  },
  {
    "binder": "ADVHCPWGAFWCPVNRPGCA (linker 5-12-19 via TBMB, bicyclic peptide) [Compound 152]",
    "label_value": "MET"
  },
  {
    "binder": "Ac-[Sar][Sar]A[dD]VTCPWGPAWCPVNRPGC (linker 7-14-21 via TBMB, bicyclic peptide) [Compound 173]",
    "label_value": "MET"
  },
  {
    "binder": "[Sar][Sar]ACPWGPFWCPVNRPAC (linker 4-11-18 via TBMB, bicyclic peptide) [Compound 111]",
    "label_value": "NOT MET"
  },
  {
    "binder": "[Sar][Sar]ACPWGPFWCPVNRAGC (linker 4-11-18 via TBMB, bicyclic peptide) [Compound 104]",
    "label_value": "NOT MET"
  }
]
